Measured protein stability index by item
B1: PKD2L1 (parent)
chain: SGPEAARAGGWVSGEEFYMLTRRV

- Variants of: B1
- protocol: protein stability index of a GFP-peptide fusion (GPS, HEK-293T) (PSI 1-6); higher = more stable;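 further: lentivirally expressed fusions sorted by FACS into six bins by GFP to DsRed ratio, PSI derived from sequencing read proportions per bin multiplied by bin number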
- experimentalContext: c terminus: a fixed tail appended
Give the figure by itself; no unit, no explanation.

Below, 5 variants whose answers are already recorded.
{"columns": ["sequenceVariant", "protein stability index"],
 "data": [
  ["L20G", 4.08],
  ["E15I", 1.59],
  ["R23H", 2.05],
  ["A6M", 1.7],
  ["P3Y", 1.49]
]}

Annotate the variant `G2C` with its measured protein stability index. 1.67
